- target of assay: human Drp1 isoform 3 (Homo sapiens, UniProt O00429)
- Construct: His tag; made in house; host or cells: E. coli Rosetta (DE3), pET21b vector
- Sequence (O00429 1-699 isoform O00429-4): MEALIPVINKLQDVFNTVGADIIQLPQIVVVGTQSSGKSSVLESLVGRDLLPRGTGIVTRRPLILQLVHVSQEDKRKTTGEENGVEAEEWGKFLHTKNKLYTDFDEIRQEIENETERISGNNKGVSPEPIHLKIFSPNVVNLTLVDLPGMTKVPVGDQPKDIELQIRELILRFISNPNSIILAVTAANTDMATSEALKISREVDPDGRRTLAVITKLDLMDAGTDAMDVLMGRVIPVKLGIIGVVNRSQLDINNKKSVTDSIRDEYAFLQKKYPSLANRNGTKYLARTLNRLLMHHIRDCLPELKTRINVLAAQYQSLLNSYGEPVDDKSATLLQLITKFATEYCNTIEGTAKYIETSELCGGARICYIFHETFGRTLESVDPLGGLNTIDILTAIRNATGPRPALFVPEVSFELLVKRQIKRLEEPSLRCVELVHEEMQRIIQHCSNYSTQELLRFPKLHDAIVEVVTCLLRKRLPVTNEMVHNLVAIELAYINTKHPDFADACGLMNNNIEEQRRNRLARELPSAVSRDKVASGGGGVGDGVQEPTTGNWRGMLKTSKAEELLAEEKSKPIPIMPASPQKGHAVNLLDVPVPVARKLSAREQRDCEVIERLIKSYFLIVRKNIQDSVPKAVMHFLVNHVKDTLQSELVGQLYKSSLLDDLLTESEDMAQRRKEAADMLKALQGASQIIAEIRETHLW
- protocol summary: Microscale thermophoresis (MST) binding
- condition summary: human Drp1 isoform 3, 5% DMSO
measurement kind: Kd (nM)
# number only, unit nM dropped from output

Q) System human Drp1 isoform 3 (Homo sapiens, UniProt O00429). Read-out Kd. Item `COc1cc(-n2c(=S)[nH]c3ccccc3c2=O)c(Cl)cc1Cl` . Report value.
A) 230
